test system: A. baumannii F264; test: E-test MIC of antibiotics on Mueller Hinton agar containing increasing concentrations of NAB739; assay type: cell-based, Acinetobacter baumannii; details: NAB 739 1 μg/ml
MEASURED ATTRIBUTE: MIC of antibiotic in the presence of NAB739 (µg/mL)

| LINE NOTATION | TEST RESULT |
| --- | --- |
| CO[C@H]1/C=C/O[C@@]2(C)Oc3c(C)c(O)c4c(O)c(c(/C=N/N5CCN(C)CC5)c(O)c4c3C2=O)NC(=O)/C(C)=C\C=C\[C@H](C)[C@H](O)[C@@H](C)[C@@H](O)[C@@H](C)[C@H](OC(C)=O)[C@@H]1C | 0.016 |
| CN[C@H](CC(C)C)C(=O)N[C@H]1C(=O)N[C@@H](CC(N)=O)C(=O)N[C@H]2C(=O)N[C@H]3C(=O)N[C@H](C(=O)N[C@H](C(=O)O)c4cc(O)cc(O)c4-c4cc3ccc4O)[C@H](O)c3ccc(c(Cl)c3)Oc3cc2cc(c3O[C@@H]2O[C@H](CO)[C@@H](O)[C@H](O)[C@H]2O[C@H]2C[C@](C)(N)[C@H](O)[C@H](C)O2)Oc2ccc(cc2Cl)[C@H]1O | 1 |
| C[C@@H](O)[C@H]1C(=O)N2C(C(=O)O)=C(S[C@@H]3CN[C@H](C(=O)N(C)C)C3)[C@H](C)[C@H]12 | 0.38 |

---

system: P. aeruginosa ATCC 27853; experiment: E-test MIC of antibiotics on Mueller Hinton agar containing increasing concentrations of NAB739; type: cell-based, Pseudomonas aeruginosa; details: NAB 739 0 μg/ml
MEASURED ATTRIBUTE: MIC of antibiotic in the presence of NAB739 (µg/mL)

| LINE NOTATION | ENDPOINT UNIT | PREFIX OPERATOR | TEST RESULT |
| --- | --- | --- | --- |
| CO[C@H]1/C=C/O[C@@]2(C)Oc3c(C)c(O)c4c(O)c(c(/C=N/N5CCN(C)CC5)c(O)c4c3C2=O)NC(=O)/C(C)=C\C=C\[C@H](C)[C@H](O)[C@@H](C)[C@@H](O)[C@@H](C)[C@H](OC(C)=O)[C@@H]1C | µg/mL | = | 32 |
| C[C@@H](O)[C@H]1C(=O)N2C(C(=O)O)=C(S[C@@H]3CN[C@H](C(=O)N(C)C)C3)[C@H](C)[C@H]12 | µg/mL | = | 0.25 |
| CN[C@H](CC(C)C)C(=O)N[C@H]1C(=O)N[C@@H](CC(N)=O)C(=O)N[C@H]2C(=O)N[C@H]3C(=O)N[C@H](C(=O)N[C@H](C(=O)O)c4cc(O)cc(O)c4-c4cc3ccc4O)[C@H](O)c3ccc(c(Cl)c3)Oc3cc2cc(c3O[C@@H]2O[C@H](CO)[C@@H](O)[C@H](O)[C@H]2O[C@H]2C[C@](C)(N)[C@H](O)[C@H](C)O2)Oc2ccc(cc2Cl)[C@H]1O | µg/mL | > | 256 |
| CC[C@H]1OC(=O)[C@H](C)[C@@H](O[C@H]2C[C@@](C)(OC)[C@@H](O)[C@H](C)O2)[C@H](C)[C@@H](O[C@@H]2O[C@H](C)C[C@H](N(C)C)[C@H]2O)[C@](C)(OC)C[C@@H](C)C(=O)[C@H](C)[C@@H](O)[C@]1(C)O | µg/mL | = | 48 |
| CC(=O)O[C@H]1C[C@@]2(C)[C@@H](C[C@@H](O)[C@H]3[C@@]4(C)CC[C@@H](O)[C@@H](C)[C@@H]4CC[C@@]32C)/C1=C(\CCC=C(C)C)C(=O)O | µg/mL | > | 256 |

---

test system: E. coli IH3080; test: Sensitization to rifampin: growth inhibition around wells on LB plates containing rifampin; assay type: cell-based, Escherichia coli; settings: 4 μg of compound; rifampin 0 μg/ml
Listed substances paired with reported growth inhibition around a well in the presence of rifampin
MEASURED ATTRIBUTE: growth inhibition around a well in the presence of rifampin (square millimeters)

| SUBSTANCE | TARGET OR SYSTEM | TEST RESULT |
| --- | --- | --- |
| OA-Thr-Dab-cy[Dab-Dab-DPhe-Leu-Dab-Abu-Thr-] [NAB 717] | E. coli IH3080 | 0 |
| DA-Thr-Abu-cy[Dab-Dab-DPhe-Leu-Dab-Dab-Thr-] [NAB 7062] | E. coli IH3080 | 50 |
| OA-Thr-Dab-cy[Dab-Abu-DPhe-Leu-Dab-Dab-Thr-] [NAB 715] | E. coli IH3080 | 0 |
| OA-Ala-Thr-DSer-cy[Dab-Dab-DPhe-Leu-Dab-Dab-Thr-] [NAB 749] | E. coli IH3080 | 133 |
| OA-Thr-Abu-cy[Dab-Dab-DPhe-Leu-Dab-Dab-Leu-] [NAB 719] | E. coli IH3080 | 7 |

---

test: in vivo; settings: male, Sprague-Dawley, rat, urine, iv, 1 mg/kg
Where a SMILES comes first, the peptide text is derived from it. Bridges are numbered along the chain shown (N, C = ends). [ ]: non-standard residue; d: D form. The star is where a group is joined. Octanoyl = CCCCCCCC(=O)*; Dab = NCC[C@H](N)C(=O)O; Abu = CC[C@H](N)C(=O)O

| COMPOUND | dose excreted / % |
| --- | --- |
| CCCCCCCC(=O)N[C@H](C(=O)N[C@@H](CC)C(=O)N[C@H]1CCNC(=O)[C@H]([C@@H](C)O)NC(=O)[C@H](CCN)NC(=O)[C@H](CCN)NC(=O)[C@H](CC(C)C)NC(=O)[C@@H](Cc2ccccc2)NC(=O)[C@H](CCN)NC1=O)[C@@H](C)O [NAB 7061] (Octanoyl-T[Abu][Dab][Dab][dF]L[Dab][Dab]T; lactam 3-C) | 7.16 |

---

experiment: in vivo; conditions: male, Sprague-Dawley, rat, plasma, iv, 1 mg/kg
Where a SMILES comes first, the peptide text is derived from it. Bridges are numbered along the chain shown (N, C = ends). [ ]: non-standard residue; d: D form. The star is where a group is joined. Octanoyl = CCCCCCCC(=O)*; Dab = NCC[C@H](N)C(=O)O; Abu = CC[C@H](N)C(=O)O

| MOLECULE | ENDPOINT UNIT | clearance |
| --- | --- | --- |
| CCCCCCCC(=O)N[C@H](C(=O)N[C@@H](CC)C(=O)N[C@H]1CCNC(=O)[C@H]([C@@H](C)O)NC(=O)[C@H](CCN)NC(=O)[C@H](CCN)NC(=O)[C@H](CC(C)C)NC(=O)[C@@H](Cc2ccccc2)NC(=O)[C@H](CCN)NC1=O)[C@@H](C)O [NAB 7061] (Octanoyl-T[Abu][Dab][Dab][dF]L[Dab][Dab]T; lactam 3-C) | mL/min/kg | 3.84 |

---

tested on: A. baumannii F264; assay: E-test MIC of antibiotics on Mueller Hinton agar containing increasing concentrations of NAB739; assay type: cell-based, Acinetobacter baumannii; details: NAB 739 0 μg/ml
MEASURED ATTRIBUTE: MIC of antibiotic in the presence of NAB739

| LINE NOTATION | TEST RESULT |
| --- | --- |
| CN[C@H](CC(C)C)C(=O)N[C@H]1C(=O)N[C@@H](CC(N)=O)C(=O)N[C@H]2C(=O)N[C@H]3C(=O)N[C@H](C(=O)N[C@H](C(=O)O)c4cc(O)cc(O)c4-c4cc3ccc4O)[C@H](O)c3ccc(c(Cl)c3)Oc3cc2cc(c3O[C@@H]2O[C@H](CO)[C@@H](O)[C@H](O)[C@H]2O[C@H]2C[C@](C)(N)[C@H](O)[C@H](C)O2)Oc2ccc(cc2Cl)[C@H]1O | >256 µg/mL |
| CC(=O)O[C@H]1C[C@@]2(C)[C@@H](C[C@@H](O)[C@H]3[C@@]4(C)CC[C@@H](O)[C@@H](C)[C@@H]4CC[C@@]32C)/C1=C(\CCC=C(C)C)C(=O)O | >256 µg/mL |
| C[C@@H](O)[C@H]1C(=O)N2C(C(=O)O)=C(S[C@@H]3CN[C@H](C(=O)N(C)C)C3)[C@H](C)[C@H]12 | >32 µg/mL |

---

Test system: E. coli IH3080
Assay: Sensitization to rifampin: growth inhibition around wells on LB plates containing rifampin
Format: cell-based, Escherichia coli
Conditions: 4 μg of compound; rifampin 0 μg/ml
Description: From an overnight-grown culture of IH3080 on LB agar, a suspension of approx. 10^8 cells/ml was prepared in 0.9% NaCl. Aliquots of this suspension were then pipetted on the agar plates and the plates were gently shaken to spread the suspension evenly on the entire surface of the plate. […] The plates were then incubated for 18 h at 37° C. whereafter the diameters of growth inhibition zones around each well were measured; the diameter of the well itself was not reduced. […]
MEASURED ATTRIBUTE: growth inhibition around a well in the presence of rifampin

| SUBSTANCE | TARGET OR SYSTEM | TEST RESULT |
| --- | --- | --- |
| MHA-Abu-Thr-Abu-cy[Dab-Dab-DPhe-Leu-Dab-Dab-Thr-] [NAB 707] | E. coli IH3080 | 5 square millimeters |
| OA-Thr-Abu-cy[Dab-Lys-DPhe-Leu-Dab-Dab-Thr-] [NAB 731] | E. coli IH3080 | 0 square millimeters |
| OA-DAla-DAla-cy[Dab-Dab-DPhe-Leu-Dab-Dab-Thr-] [NAB 733] | E. coli IH3080 | 0 square millimeters |
| OA-Thr-DSer-cy[Dab-Dab-DPhe-Thr-Dab-Dab-Thr-] [NAB 734] | E. coli IH3080 | 113 square millimeters |
| OA-Thr-Ser-cy[Dab-Dab-DPhe-Leu-Dab-Dab-Thr-] [NAB 743] | E. coli IH3080 | 38 square millimeters |

This collection of values is drawn from patent US8329645B2.
